- Test Target: PRMT5 (Homo sapiens)
- Construct: purchased Viva (custom protein)
- Assay Protocol: PRMT5 biochemical IC50 assay with SAM as cofactor
- Condition Info: PRMT5, SAM as cofactor; read-out: SAM IC50
Measured Endpoint: IC50

{"columns": ["Compound", "Measured Endpoint", "Endpoint Result"],
 "data": [
  ["CC(=O)Nc1ccc([C@@H]2CC[C@@H](C)CN2C(=O)C(=O)Nc2cncc(C)c2)cc1 (racemic)", "IC50", "50 to 500 nM"],
  ["Cc1cc(NC(=O)C(=O)N2C[C@H](C)CC[C@H]2c2ccc(F)c(Cl)c2)cnc1N (single isomer, unassigned)", "IC50", "50 to 500 nM"],
  ["C[C@@H]1CC[C@@H](c2ccc(N3CCCC3)nc2)N(C(=O)C(=O)Nc2cncc(C(N)=O)c2)C1 (racemic)", "IC50", "> 500 nM"]
]}

Would you kindly look at the next entry?
Challenge: Give reported IC50 value for Cc1cc(NC(=O)C(=O)N2C[C@H](C)CC[C@H]2c2ccc3[nH]c(=O)ccc3c2)cnc1N (racemic) [Compound 671]
Response given: 50 to 500 nM

---

IC50 overview
- Test Target: PRMT5 (Homo sapiens, UniProt O14744)
- Construct: purchased Viva (custom protein)
- Sequence (O14744 whole entry): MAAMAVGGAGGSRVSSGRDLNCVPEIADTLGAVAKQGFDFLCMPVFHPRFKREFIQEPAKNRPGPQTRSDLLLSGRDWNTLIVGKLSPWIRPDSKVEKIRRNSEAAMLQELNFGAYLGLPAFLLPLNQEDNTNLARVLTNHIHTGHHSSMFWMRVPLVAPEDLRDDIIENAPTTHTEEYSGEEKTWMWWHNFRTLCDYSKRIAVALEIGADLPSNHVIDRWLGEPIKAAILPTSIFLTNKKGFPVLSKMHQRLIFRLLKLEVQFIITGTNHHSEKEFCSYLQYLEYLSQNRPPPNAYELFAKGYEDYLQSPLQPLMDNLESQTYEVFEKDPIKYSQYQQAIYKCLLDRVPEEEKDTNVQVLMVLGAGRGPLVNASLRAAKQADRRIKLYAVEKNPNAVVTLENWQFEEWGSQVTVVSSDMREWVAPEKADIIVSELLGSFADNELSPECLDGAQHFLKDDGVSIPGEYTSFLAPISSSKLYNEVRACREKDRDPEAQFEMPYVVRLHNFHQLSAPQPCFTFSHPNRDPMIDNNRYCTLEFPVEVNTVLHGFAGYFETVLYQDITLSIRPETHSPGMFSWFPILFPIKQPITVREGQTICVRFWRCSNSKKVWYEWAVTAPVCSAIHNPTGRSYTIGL
- Sequence (Q9BQA1 whole entry partner): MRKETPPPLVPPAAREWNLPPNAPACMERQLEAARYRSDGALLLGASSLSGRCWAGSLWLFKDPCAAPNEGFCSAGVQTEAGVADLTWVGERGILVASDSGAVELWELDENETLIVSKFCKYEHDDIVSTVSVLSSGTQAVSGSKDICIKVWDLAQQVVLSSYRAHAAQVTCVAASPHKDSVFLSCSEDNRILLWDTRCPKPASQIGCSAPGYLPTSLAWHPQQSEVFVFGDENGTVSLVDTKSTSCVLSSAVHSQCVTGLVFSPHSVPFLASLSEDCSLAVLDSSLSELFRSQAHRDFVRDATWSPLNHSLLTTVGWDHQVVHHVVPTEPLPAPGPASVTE
- Assay Protocol: PRMT5 biochemical IC50 assay with SAM as cofactor
- Condition Info: PRMT5, SAM as cofactor; read-out: SAM IC50

Here are 3 compounds together with their reported answers.
{"columns": ["Compound", "Endpoint Result"],
 "data": [
  ["CC(=O)N[C@H]1CCN(C(=O)C(=O)Nc2cncc(C(N)=O)c2)[C@@H](c2ccccc2)C1 (racemic)", "> 500 nM"],
  ["Cc1cc(NC(=O)C(=O)N2C[C@@H](C)CC[C@@H]2c2ccc3sc(CCN4CCOCC4)nc3c2)cnc1N", "50 to 500 nM"],
  ["Cn1nccc1C1CCCCN1C(=O)C(=O)Nc1cncc(C(N)=O)c1 (stereo not shown) [Compound 26]", "50 to 500 nM"]
]}

Would you kindly look at the next entry?
Challenge: Give reported IC50 value for C[C@H]1CC[C@H](c2ccc3sc(CCN(C)C)nc3c2)N(C(=O)C(=O)Nc2cncc(C(N)=O)c2)C1 (single isomer, unassigned)
Response given: > 500 nM

---

- System: HAP1 MTAP-intact cell line
- Assay Protocol: SDMA in-cell western assay, HAP1 MTAP-intact
- Assay type: cell-based
- Condition Info: Homo sapiens, HAP1, SDMA in-cell western, HAP1 MTAP-intact; read-out: MTAP HAP1 intact IC50
pIC50: −log10 of the molar value.
pIC50 overview

Here are 2 compounds together with their reported answers.
{"columns": ["Compound", "pIC50"],
 "data": [
  ["CC1(C)CCC[C@H]2CN(C(=O)C(=O)Nc3cncc(C(N)=O)c3)CC[C@@H]21 (single isomer, unassigned)", "< 6.00"],
  ["C[C@@H]1CC[C@@H](c2ccc3[nH]ncc3n2)N(C(=O)C(=O)Nc2cncc(C(N)=O)c2)C1 (single isomer, unassigned)", "< 6.00"]
]}

Would you kindly look at the next entry?
Challenge: Give reported pIC50 value for C[C@H]1CC[C@H](c2ccc(NS(C)(=O)=O)cc2)N(C(=O)C(=O)Nc2cncc(C(N)=O)c2)C1 (single isomer, unassigned)
Response given: < 6.00

---

- Test Target: PRMT5 (Homo sapiens, UniProt O14744)
- Construct: purchased Viva (custom protein)
- Assay Protocol: PRMT5 biochemical IC50 assay with MTA as cofactor
- Condition Info: PRMT5, MTA as cofactor; read-out: MTA IC50
IC50 overview

Here are 6 compounds together with their reported answers.
{"columns": ["Compound", "IC50"],
 "data": [
  ["CCc1cc(NC(=O)C(=O)N2C[C@H](C)CC[C@H]2c2ccc3sc(CCN(C)C)nc3c2)cnc1N (single isomer, unassigned) [Compound 1133]", "> 500 nM"],
  ["CCc1cc(NC(=O)C(=O)N2C[C@@H](C)CC[C@@H]2c2cccc(CCCN(C)C)c2)cnc1N [Compound 1393]", "< 50 nM"],
  ["Cc1cncc(NC(=O)C(=O)N2C[C@H](C)CC[C@H]2c2cccc(C)c2)c1 (single isomer, unassigned) [Compound 10]", "50 to 500 nM"],
  ["Cc1cc(NC(=O)C(=O)N2C[C@H](C)CC[C@H]2C)cnc1N (racemic) [Compound 158]", "50 to 500 nM"],
  ["NC(=O)c1cncc(NC(=O)C(=O)N2CC3(CCC2c2ccc(F)cc2)CC3)c1 (stereo not shown) [Compound 776]", "50 to 500 nM"],
  ["CNC(=O)c1cccc([C@H]2CC[C@H](C)CN2C(=O)C(=O)Nc2cncc(C)c2)c1 (racemic) [Compound 48]", "50 to 500 nM"]
]}

Challenge: Give reported IC50 value for COc1ncc(NC(=O)C(=O)N2C[C@@H](C)CC[C@@H]2c2ccc(C)nc2)cc1C(N)=O (single isomer, unassigned) [Compound 770]
Response given: > 500 nM

---

- Test system: HAP1 MTAP-deleted cell line
- Assay Protocol: SDMA in-cell western assay, HAP1 MTAP-deleted
- Assay type: cell-based
- Condition Info: Homo sapiens, HAP1, SDMA in-cell western, HAP1 MTAP-deleted; read-out: HAP 1 MTAP deleted IC50
pIC50: −log10 of the molar value.
pIC50 overview

Here are 5 compounds together with their reported answers.
{"columns": ["Compound", "Test Target", "Endpoint Result"],
 "data": [
  ["Cc1cc(NC(=O)C(=O)N2C[C@H](C)CC[C@H]2c2ccc(-c3cn[nH]c3)cc2)cnc1N (single isomer, unassigned)", "HAP1 MTAP-deleted cell line", "> 7.00"],
  ["COc1ncc(NC(=O)C(=O)N2C[C@@H](C)CC[C@@H]2c2cc3[nH]ncc3s2)cc1C(N)=O (single isomer, unassigned)", "HAP1 MTAP-deleted cell line", "> 7.00"],
  ["CCc1cc(NC(=O)C(=O)N2C[C@@H](C)CC[C@@H]2c2ccc(N3CCN(C)[C@@H](C)C3)nc2)cnc1N (single isomer, unassigned)", "HAP1 MTAP-deleted cell line", "> 7.00"],
  ["Cc1cc(NC(=O)C(=O)N2C[C@H](C)CC[C@H]2c2ccc(S(C)(=O)=O)cc2)cnc1N (racemic)", "HAP1 MTAP-deleted cell line", "6.00 to 7.00"],
  ["C[C@@H]1CC[C@@H](c2ccc(F)cc2)N(C(=O)C(=O)Nc2cnc(OC(F)F)c(C(N)=O)c2)C1 (racemic)", "HAP1 MTAP-deleted cell line", "< 6.00"]
]}

Would you kindly look at the next entry?
Challenge: Give reported pIC50 value for CCc1cc(NC(=O)C(=O)N2C[C@@H](C)CC[C@@H]2c2ccc3sc([C@H]4CCCN(C)C4)nc3c2)cnc1N
Response given: > 7.00

---

pIC50 overview
- Test Target: PRMT5 (Homo sapiens)
- Construct: purchased Viva (custom protein)
- Assay Protocol: PRMT5 biochemical IC50 assay with MTA as cofactor
- Condition Info: PRMT5, MTA as cofactor; read-out: MTA IC50
pIC50: −log10 of the molar value.

Here are 5 molecules together with their reported answers.
{"columns": ["Molecule", "pIC50"],
 "data": [
  ["Cc1cc(NC(=O)C(=O)N2C[C@@H](C)CC[C@H]2C23CC(C(N)=O)(C2)C3)cnc1N (single isomer, unassigned)", "6.30 to 7.30"],
  ["C[C@@H]1CC[C@@H](c2cccc(C#N)c2)N(C(=O)C(=O)Nc2cncc(C(N)=O)c2)C1 (racemic)", "> 7.30"],
  ["C[C@H]1CC[C@H]([C@H]2CC[C@H](O)CC2)N(C(=O)C(=O)Nc2cncc(C(N)=O)c2)C1 (single isomer, unassigned)", "> 7.30"],
  ["CC(=O)NCc1ccc([C@@H]2CC[C@@H](C)CN2C(=O)C(=O)Nc2cnc(N)c(C)c2)cc1 (racemic)", "6.30 to 7.30"],
  ["Cc1ccc([C@H]2CC[C@@H](C)CN2C(=O)C(=O)Nc2cnc(N)c(C)c2)nc1 (racemic)", "6.30 to 7.30"]
]}

Would you kindly look at the next entry?
Challenge: Give reported pIC50 value for C[C@@H]1CC[C@@H](c2ccc(N)cc2)N(C(=O)C(=O)Nc2cncc(C(N)=O)c2)C1 (single isomer, unassigned)
Response given: > 7.30

---

- Test Target: PRMT5 (Homo sapiens)
- Construct: purchased Viva (custom protein)
- Assay Protocol: PRMT5 biochemical IC50 assay with SAM as cofactor
- Condition Info: PRMT5, SAM as cofactor; read-out: SAM IC50
Measured Endpoint: IC50

Here are 6 compounds together with their reported answers.
{"columns": ["Compound", "Measured Endpoint", "Endpoint Result"],
 "data": [
  ["CCc1cc(NC(=O)C(=O)N2C[C@@H](C)CC[C@@H]2c2ccc3sc(CCCN(C)C)nc3c2)cnc1N", "IC50", "< 50 nM"],
  ["CC(=O)N[C@H]1C[C@H]([C@@H]2CC[C@H](C)CN2C(=O)C(=O)Nc2cnc(N)c(C)c2)C1 (single isomer, unassigned)", "IC50", "> 500 nM"],
  ["NC(=O)c1cncc(NC(=O)C(=O)N2CC[C@@H]3CCCC[C@@H]3C2)c1 (racemic)", "IC50", "50 to 500 nM"],
  ["NC(=O)c1cncc(NC(=O)C(=O)N2C[C@@H](CC(F)(F)F)CC[C@@H]2c2ccccc2)c1 (racemic)", "IC50", "50 to 500 nM"],
  ["C[C@H]1CC[C@H]2CCCC[C@H]2N1C(=O)C(=O)Nc1cncc(C(N)=O)c1 (single isomer, unassigned)", "IC50", "50 to 500 nM"],
  ["Cc1cccc([C@H]2CCCCN2C(=O)C(=O)Nc2cnc(N)c(C)c2)c1 (single isomer, unassigned)", "IC50", "50 to 500 nM"]
]}

Challenge: Give reported IC50 value for CCc1cc(NC(=O)C(=O)N2C[C@@H](C)CC[C@@H]2c2ccc3sc([C@@H](C)N(C)C)nc3c2)cnc1N (single isomer, unassigned)
Response given: 50 to 500 nM

Challenge: Give reported IC50 value for C[C@@H]1CC[C@@H](c2ccc(F)cc2)N(C(=O)C(=O)Nc2cnc(OC(F)(F)F)c(C(N)=O)c2)C1 (racemic)
Response given: 50 to 500 nM
